- experimental system: MMP-9 (gelentinase 92 kD) (Homo sapiens)
- Construct: MMP-9 IC50; other: catalytic domain
- measurement protocol: Inhibition of MMP-9 catalytic domain (same test as MMP8)
- Type: biochemical
measured endpoint: IC50 (nM)
Answers are plain numbers, in nM.

Previously resolved entries follow.
# compound, experimental system, unit symbol, IC50
data = [
    ("CCCCCCCCC1(CC(=O)NCCNC(C)=O)C(=O)NC(=O)NC1=O [Example 5]", "MMP-9 (gelentinase 92 kD) (Homo sapiens)", "nM", 20),
    ("CCCCCCCCC1(CC(=O)OCC)C(=O)NC(=O)NC1=O [Example 1]", "MMP-9 (gelentinase 92 kD) (Homo sapiens)", "nM", 19.6),
]

Continue with the next compound.
## Task Any idea what its IC50 is? The compound is CCCCCCCCC1(CC(=O)N(CCNC(C)=O)Cc2ccccc2)C(=O)NC(=O)NC1=O [Example 6]
## Result 14

###

- experimental system: MMP8 (human neutrophil collagenase) catalytic domain (Homo sapiens, UniProt P22894)
- Construct: by means of the catalytic domain of MMP8
- Sequence (P22894 100-262 limits assumed): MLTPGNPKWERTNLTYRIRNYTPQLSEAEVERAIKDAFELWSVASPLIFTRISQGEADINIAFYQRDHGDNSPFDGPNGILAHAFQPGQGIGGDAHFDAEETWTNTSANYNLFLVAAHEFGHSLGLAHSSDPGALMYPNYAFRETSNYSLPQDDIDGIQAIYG
- measurement protocol: Inhibition of MMP8 catalytic domain, fluorescent DNP-substrate degradation
- Description: Said test provides for the determination via fluorescence of the inhibition of the degradation of a fluorescent substrate (DNP-Pro-Leu-Gly-Leu-Trp-Ala-D-Arg-[…], M1855 Bachem) by means of the catalytic domain of MMP8. […] It is measured the fluoresence at 346 nm both of the control solution (without inhibitor) and of the solution containing the inhibitor. […]
measured endpoint: IC50 (nM)
Numbers only, in nM.

# compound, measured endpoint, endpoint result
measured = [
    ("CCCCCCCCC1(CC(=O)NCCNC(C)=O)C(=O)NC(=O)NC1=O [Example 5]", "IC50", 99),
]

Batch of 2 compounds: report IC50 for each.
1. CCCCCCCCC1(CC(=O)N(CCNC(C)=O)Cc2ccccc2)C(=O)NC(=O)NC1=O [Example 6]
2. CCCCCCCCC1(CC(=O)OCC)C(=O)NC(=O)NC1=O [Example 1]

## Result
68
107

###

- experimental system: MMP-9 (gelentinase 92 kD) (Homo sapiens)
- Construct: MMP-9 IC50; other: catalytic domain
- Sequence (P14780 with tags, fused parts or gaps DEL217-390 limits assumed): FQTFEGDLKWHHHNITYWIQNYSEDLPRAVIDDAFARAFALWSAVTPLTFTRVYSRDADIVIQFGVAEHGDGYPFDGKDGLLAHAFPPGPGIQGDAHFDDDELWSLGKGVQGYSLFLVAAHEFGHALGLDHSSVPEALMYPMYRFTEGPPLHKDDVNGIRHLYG
- measurement protocol: Inhibition of MMP-9 catalytic domain (same test as MMP8)
- Assay type: biochemical
- measurement setup: catalytic domain; read-out: MMP-9 IC50
measured endpoint: IC50

## Task Any idea what its IC50 is? The compound is CNC(=O)[C@H](Cc1ccccc1)NC(=O)[C@H](CC(C)C)[C@H](CSc1cccs1)C(=O)NO [batimastat, reference compound]
## Result 25 nM
